Molecular target: human glucagon receptor (human, UniProt P47871 26-477)
Assay: cell-based or functional assay
Starred links: 1 amine or outer side, 2 acyl side, 3 side chain; linkers in the order of their positions; H or OH if unused. Non-standard residues stand in square brackets, D forms with d. No end group written: not given here. NMe2F‑APPA = N-methyl-2-amino-5-(2-fluorophenyl)pentanoic acid, CN([C@@H](CCCc1ccccc1F)C(=O)[*:2])[*:1]; 2F,4CF3‑APPA = 2-amino-5-(2-fluoro-4-(trifluoromethyl)phenyl)pentanoic acid; Bip(2'-Et-4'-OMe) = CCc1cc(OC)ccc1-c1ccc(C[C@H](N)C(=O)O)cc1; Leu(5,5,5,5',5',5'-F6) = N[C@@H](CC(C(F)(F)F)C(F)(F)F)C(=O)O; 2F‑APPA = 2-amino-5-(2-fluorophenyl)pentanoic acid; αMePhe(2-F) = C[C@](N)(Cc1ccccc1F)C(=O)O; NMeBip(OMe) = N-methylated Bip(OMe); hhPhe = N[C@@H](CCCc1ccccc1)C(=O)O; NMeD = CN[C@@H](CC(=O)O)C(=O)O; aThr = C[C@H](O)[C@H](N)C(=O)O; NMeAPPA = not defined here; CNB = not defined here; Aib = CC(C)(N)C(=O)O
metricName: inhibition of cAMP production, 100 nM (pmol/ml/µg prt)

H[Aib][CNB]G[aThr][αMePhe(2-F)][aThr]SD[Bip(2'-Et-4'-OMe)][2F‑APPA] (reading uncertain; also: reduced (CH2) bonds Z9-Z10 and Z10-Z11) [Seq. ID. No. 204: H-Aib-(CNB)-G-T(allo)-(α-Me-2F-Phe)-T(allo)-SD-(CH2)-Bip(OMe)-(CH2)-(2F-APPA)] ... 2
Ac-H[Aib][CNB]GT[αMePhe(2-F)]TSD[Bip(2'-Et-4'-OMe)][hhPhe] (reading uncertain) [Seq. ID. No. 205: CH3CO-H-Aib-(CNB)-GT-(α-Me-2F-Phe)-TSD-Bip(OMe)-(APPA)] ... 0

[I] H[Aib][Leu(5,5,5,5',5',5'-F6)]GT[αMePhe(2-F)][aThr]SD[Bip(2'-Et-4'-OMe)][hhPhe] [Seq. ID. No. 225: H-Aib-(Hfl)-GT-(α-Me-2F-Phe)-T(allo)-SD-Bip(OMe)-(APPA)]
[II] H[Aib][CNB]G[aThr][αMePhe(2-F)][aThr]S[NMeD][NMeBip(OMe)][NMeAPPA] (reading uncertain) [Seq. ID. No. 154: H-Aib-(CNB)-G-T(allo)-(α-Me-2F-Phe)-T(allo)-S-(NMe)D-((NMe)Bip(OMe))-((NMe)(APPA))]
Request: Hello, I am sorting some records. Could you say if I or II has the smaller inhibition of cAMP production, 100 nM value? Pick one and reply with its label.
Result: I
(I: 0 pmol/ml/µg prt, II: 5 pmol/ml/µg prt)

[a] H[Aib]QGTFTSD[Bip(2'-Et-4'-OMe)][2F,4CF3‑APPA] [Seq. ID. No. 65: H-Aib-QGTFTSD-Bip(OMe)-(2F,4CF3-APPA)]
[b] H[Aib][CNB]G[aThr][αMePhe(2-F)][aThr]SD[NMeBip(OMe)][NMe2F‑APPA] (reading uncertain) [Seq. ID. No. 144: H-Aib-(CNB)-G-T(allo)-(α-Me-2F-Phe)-T(allo)-SD-((NMe)Bip(OMe))-((NMe)(2F-APPA))]
Request: Select the item with the higher value of inhibition of cAMP production, 100 nM from the options a and b listed. Pick one and reply with its label.
Result: a
(a: 6 pmol/ml/µg prt, b: 0 pmol/ml/µg prt)
